The origin of these recorded values is the supplement of paper PMC9170038.

# Tested on: MS2 coat protein
# Measurement protocol: apparent KD of MS2 coat protein; designed switch direction (-1 OFF switch, 1 ON switch): -1; higher = weaker reporter binding
# Condition set: input ligand: microRNA oligo, concentration not stated
Outcome measure: apparent KD of MS2 coat protein (nM)
Give a bare numeral; the unit nM is implied.

AAUAAUCAUGUAGGAUAUGCGUGGCAAAGCUAUGCAGAAGGACAUGAGGAUCACCCAUGUUCUAGCGUCUGAGAACAGAUGCUA [Mat - Exclusion NG 1 - Mod of JL - D82] (Eterna round: R96, puzzle: Exclusion NG 1); 30.2
UGUUUAUAUGAAGGAUAUACUUAACAUGAGGAUCACCCAUGUGGUGUUGUGAGUGAGUGAGUUUAGUAGAAGGUCAAUUCUUUU [JMF's solution 97] (Eterna round: R96, puzzle: Exclusion NG 2); 553
CCCGGGUCUGCAGGAUAUUCGAAAGCAGGUCAAAGGUCACAUGAGGAUCACCCAUGUAGUUUAACGAAGAAGGGUGUCGCCCGU [Eternabot solution 38] (Eterna round: R96, puzzle: Exclusion NG 2); 76.7
CUAUGUUAGCAGGAUAUGCCAUUAUUCUUUUUCGCAGAAGGGCUUACAUGAGGAUCACCCAUGUUACAUUUCUU [JR_E6_Sub086] (Eterna round: R96, puzzle: Exclusion 6); 14.9

Next, consider the following sequence.
Give apparent KD of MS2 coat protein for UUCGUGCUGCUUUGCUGUACGAGUACAUGAGGAUCACCCAUGUAGGAUAUGGUUCGCUUUGCGUGCUAGAAGGAUAUGUGUUGC [salish99_ExNG3_r04_507] (Eterna round: R96, puzzle: Exclusion NG 3)
17.8

----------
# Tested on: MS2 coat protein
# Measurement protocol: apparent KD of MS2 coat protein; designed switch direction (-1 OFF switch, 1 ON switch): -1; higher = weaker reporter binding
# Condition set: input ligand: FMN 200 uM
Outcome measure: apparent KD of MS2 coat protein
Number first, unit second: that is the form wanted.

Some sequences with known apparent KD of MS2 coat protein results, for comparison:
CACCAGAGAGGAUAUGCACUCAUGGCACCGAAAGGGAGGCGACAUGAGGAUCACCCAUGUAGAAGGCUCAGCAG [Eternabot (Original) Solution 16] (Eterna round: R97, puzzle: Exclusion 2); 153 nM
GGCACACAUGAGGAUCACCCAUGUGAGGAUAUGUGGCGAUCGUCGAAAGACGAUAGCCAUAGAAGGCACAUGCC [Eli x1 4.08] (Eterna round: R97, puzzle: Exclusion 1); 32.1 nM
GUCAGCUCGUGAGGAUAUACAUGCGUGCUUCGGCACGAAUUUAAGAUCACAUGAGGAUCACCCAUGUAGAAGGUACGAGCUGAC [ENG2/3-C1] (Eterna round: R96, puzzle: Exclusion NG 2); 632 nM
AACUUCUGAGGAUAUACAUAGAUUUACAUGAGGAUCACCCAUGUUCCUCUUUGUAUAAAUGUAGAAGGCAGAAGAA [Mat - Exclusion 5 - JL Mod - D72] (Eterna round: R97, puzzle: Exclusion 5); 349 nM
GGUGAGCUAGGAUAUGCUUUGGGCUCGCUUUCCUUCGAUAUACUUGAGGAUCACCCAAGUAGAAGGAGCUUGCC [salish99_ex2_r4_034] (Eterna round: R97, puzzle: Exclusion 2); 11.1 nM

Give apparent KD of MS2 coat protein for UAUAUGUCAGGAUAUUAGUAGUAAAUGAAUAAAAUUAUUACUGAGAAGGGACAUGAGGAUCACCCAUGUGCCUU [Mat - Exclusion 4 - Eli Mod - D23] (Eterna round: R97, puzzle: Exclusion 4)
20.6 nM

Give apparent KD of MS2 coat protein for GGCCGUAAUAAGGAUAUCACUAGCUUCGGCUAGUGAGAAGGUAUUACAUGAGGAUCACCCAUGUGAUCAGGCCA [E6/3-B1] (Eterna round: R97, puzzle: Exclusion 6)
726 nM

Give apparent KD of MS2 coat protein for GUUUCACAUGAGGAUCACCCAUGUGAGGAUAUCAAUUUGUUAACCGUAGUUAAUAGAUUGAGAAGGCGCGUGAU [JRxlusion 2- Jieux - Exclusion 1] (Eterna round: R97, puzzle: Exclusion 1)
64.5 nM

Give apparent KD of MS2 coat protein for UGGUAGUUAGGAUAUACAUGAGGAUCACCCAUGUACGGGUGCAGAAAAGAAAGCCUUCGUAGAAGGAACACCUG [Aaredima] (Eterna round: R97, puzzle: Exclusion 3)
69.1 nM

Give apparent KD of MS2 coat protein for GAUAGUGGAGGAUAUACAUGAGGAUCACCCAUGUGAAGUUGCGUAAGUGACCCUUCCUGUAGAAGGCCAAGCAA [Eternabot (Original) Solution 31] (Eterna round: R97, puzzle: Exclusion 3)
256 nM

----------
# System: MS2 coat protein
# Measurement protocol: apparent KD of MS2 coat protein; designed switch direction (-1 OFF switch, 1 ON switch): -1; higher = weaker reporter binding
# Condition set: input ligand: FMN 200 uM
Outcome measure: apparent KD of MS2 coat protein
Number first, unit second: that is the form wanted.

CCAAGCUUUUUCCUUAACAACAUGAGGAUCACCCAUGUGUAAGCUAUUCGGUUUGGGCUCUUUAGUGCUCGUCUUAU [malcom mod] (Eterna round: R97, puzzle: Sensor, turn-off variant 1); 0.0192 µM

Give apparent KD of MS2 coat protein for UUGCAGUCGUCAGGAUAUAGUAUUACGGCCUUUCAUUUCUUCAUACAUGAGGAUCACCCAUGUCGCUAGAAGGGAUUAUCGCUU [salish99_ExNG2_r04_107] (Eterna round: R96, puzzle: Exclusion NG 2)
0.0164 µM

Give apparent KD of MS2 coat protein for UGCAUGUGAGGAUAUGGCGCUCGAUUGCGGAAGGAGCGAGUUUAGAAGGUACAUGAGGAUCACCCAUGUCACGU [Eternabot (L2) Solution 97] (Eterna round: R97, puzzle: Exclusion 4)
0.0216 µM

Give apparent KD of MS2 coat protein for CGAUGAGGAGUGAGGAUAUCGUGUUCGAAAGAACGUGAGAAGGCACAUGAGGAUCACCCAUGUGAUCCUCAUGG [Omei Ex4B A23] (Eterna round: R97, puzzle: Brourd's mod of Exclusion 4)
1.03 µM

Give apparent KD of MS2 coat protein for GUGCGCGGCUAGGAUAUUGUGGGUUUUUGUCUGCGAGAAGGAGCCACAUGAGGAUCACCCAUGUGGUGUUGCUC [salish99_ex6_r4_013] (Eterna round: R97, puzzle: Exclusion 6)
0.22 µM

Give apparent KD of MS2 coat protein for GUUAUUAAUGUAGGAUAUGCAAGGCGAACCUAAGCAGAAGGACAUGAGGAUCACCCAUGUAUUGCGGUCUGCGUUCAGAUCGCU [salish99_ExNG1_r4_012] (Eterna round: R96, puzzle: Exclusion NG 1)
0.0399 µM

----------
# System: MS2 coat protein
# Measurement protocol: apparent KD of MS2 coat protein; designed switch direction (-1 OFF switch, 1 ON switch): -1; higher = weaker reporter binding
# Condition set: input ligand: FMN 200 uM
Outcome measure: apparent KD of MS2 coat protein (nM)
Give a bare numeral; the unit nM is implied.

UAUCAACAUGAGGAUCACCCAUGUGAGGAUAUCAAAACCAGAGCGGAUCUCUGGCCCAUGAGAAGGUACAUGGU [ElNandoxlusion 6 - Jieux - Exclusion 1] (Eterna round: R97, puzzle: Exclusion 1); 111

Give apparent KD of MS2 coat protein for UUAUCUACUGAGGAUAUUAUAUCACCCGACUGAUAAGAAGGCAGUACAUGAGGAUCACCCAUGUGGGUAGCCAU [Polaris10] (Eterna round: R97, puzzle: Exclusion 6)
43

Give apparent KD of MS2 coat protein for CUGCUCCGUGUAGGAUAUCCGCGCAACCAACGCGGAGAAGGACAUGAGGAUCACCCAUGUAUGUUAUUAUCACGUGAAGCGUCC [Design 29] (Eterna round: R96, puzzle: Exclusion NG 1)
32.5

Give apparent KD of MS2 coat protein for UACUUGUUAGGAUAUCUUACAUUUGCAUCAUAGUAACCAUUGGAGAAGGGACAUGAGGAUCACCCAUGUUUGGA [tap-tap-tappy2] (Eterna round: R97, puzzle: Exclusion 4)
32.2

Give apparent KD of MS2 coat protein for CAUCAGAUAGGAUAUACAGGCCCGUCUUUAUAUUGAUCCCGACAUGAGGAUCACCCAUGUAGAAGGAUCAGAUG [Mod 27 - Jieux - Exclusion 2] (Eterna round: R97, puzzle: Exclusion 2)
21.2

Give apparent KD of MS2 coat protein for ACUAGUCUAAAGGAUAUGGACCUGAACAAAUGGCCAGAAGGUUAAACAUGAGGAUCACCCAUGUAGGUGCGCCA [Eternabot (Original) Solution 18] (Eterna round: R97, puzzle: Exclusion 6)
31.2

Give apparent KD of MS2 coat protein for GGUCAACGUGUGAGGAUAUGUCAACCCUGUGGAAAGCAGAAGGCACAUGAGGAUCACCCAUGUAAUAAGAAAAC [Soasois] (Eterna round: R97, puzzle: Brourd's mod of Exclusion 4)
29.9

Give apparent KD of MS2 coat protein for CUCCGGCAUGUAGGAUAUGGAUCCGAUUAGGAUCCAGAAGGACAUGAGGAUCACCCAUGUACAUGUAAACAGUCAUCACCGGAC [salish99_ExNG1_r04_202] (Eterna round: R96, puzzle: Exclusion NG 1)
284

Give apparent KD of MS2 coat protein for ACGUUGUCAGGAUAUCGUUAAUUUAGUUGUUUGUAUUAGUUCGAGAAGGGACAUGAGGAUCACCCAUGUUUGCA [Ex4 #31] (Eterna round: R97, puzzle: Exclusion 4)
32.7

Give apparent KD of MS2 coat protein for CCCUUUCAGGCAGGAUAUGUUCAUUUGUGAAUGGUGCCUACCUCACAUGAGGAUCACCCAUGUGGACAGAAGGGCCGGUGAAAA [Eternabot solution 26] (Eterna round: R96, puzzle: Exclusion NG 2)
120

Give apparent KD of MS2 coat protein for AAUUAAUUAAUUAAUUAAUACAUGAGGAUCACCCAUGUAAUUUAAGAUCCUUAUACAAGCUUUGAUCUCGUAAUUAA [Stov1/4-A1] (Eterna round: R97, puzzle: Sensor, turn-off variant 1)
98.9

Give apparent KD of MS2 coat protein for GUAUGUGCGAGAGGAUAUCGUGUACAAAGUACACGAGAAGGCUUCACAUGAGGAUCACCCAUGUACCGAGGUGAAACACCUUGA [Omei Exc(NG)1 Bv8] (Eterna round: R96, puzzle: Exclusion NG 1)
934

Give apparent KD of MS2 coat protein for GACAGGGCAGGAUAUCGAAUUCCUCACAUGAGGAUCACCCAUGUUCAGUCGAAAGACUGACGAGAAGGGCCGUGUC [Omei Ex5 E1] (Eterna round: R97, puzzle: Exclusion 5)
1020

Give apparent KD of MS2 coat protein for GGGCAGGGAGGAUAUGUAUCGCACUACAUGAGGAUCACCCAUGUGCCUUUUGUGACGUGGACAGAAGGUCCUGCCG [Eternabot (L1) Solution 17] (Eterna round: R97, puzzle: Exclusion 5)
129

Give apparent KD of MS2 coat protein for AAGAGGAUUAUAGGAUAUGAAGCUAAAACGGCGUUAGAAGGGUAUACAGAGUUACAUGAGGAUCACCCAUGUUGUGAUUUCUAA [AK ExNG1-V2-4.3] (Eterna round: R96, puzzle: Exclusion NG 1)
52.6
